system: Jurkat Cells; experiment: GFP plasmid transfection with DOTMA/DOPE plus surface ligand peptide, fluorescent plate reader (Example 1); format: cell-based; conditions: DOTMA/DOPE + peptide linked to R12 or K16; EF1Alpha eGFP plasmid; 42 hours
Mark condition met only when Relative Fluorescence of Transfection of Jurkat Cells (RF) stays strictly below 10000. Values equal to the cut-off are condition not met.

Use these answered entries as a reference point.
501 (DLGTAGSCLRRFSTM) [compound 501]; condition not met
323 (HQQDLGTAGSCLRKFSTMFLF) [compound 323]; condition met
360 (GDLGRPGRKGRPGPP) [compound 360]; condition not met
219 (RKRLQVQLSIRT) [compound 219]; condition not met
226 (ANGQTPIQRYIK) [compound 226]; condition not met

**Query** Relative Fluorescence of Transfection of Jurkat Cells (RF) strictly < 10000 for this substance? 328 (NWRHISYITRFG) [compound 328]
**Result** condition met

**Query** Does the reported Relative Fluorescence of Transfection of Jurkat Cells (RF) of the following substance sit strictly below 10000? 347 (DLGTAGSCLRKFSTM) [compound 347]
**Result** condition not met

**Query** Is it true that Relative Fluorescence of Transfection of Jurkat Cells (RF) reported for 348 (HQQDLGTAGSCLRKFSTM) [compound 348] is less than 10000?
**Result** condition not met

* * *

system: HuVec Cells; assay: GFP plasmid transfection with DOTMA/DOPE plus plant virus movement protein derived peptides (Example 2); assay type: cell-based; conditions: Transfection Agent 6 μl, 42 hours
MEASURED_QUANTITY: Relative Fluorescence of Transfection of HuVEC Cells (Rf)
Quick reminder: number only, in Rf, skip the unit.

Some substances with recorded Relative Fluorescence of Transfection of HuVEC Cells:
547 (SYVKTVPNRTRTYIKGGGGGRRRRRRRRRRRR) [compound 547]; 26775
542 (KKKKKKKKKKKKKKKKGKWERKPIRCAS) [compound 542]; 29326

**Query** Look up Relative Fluorescence of Transfection of HuVEC Cells: 543 (RRRRRRRRRRRRVDFSHVDYGKWERKPIRCASMSRLGLRG) [compound 543]
**Result** 25492

**Query** # query: Relative Fluorescence of Transfection of HuVEC Cells of entry 546 (RTGVKRSYGAARGDDRRRPNVVRRRRRRRRRRRR) [compound 546]
**Result** 27690

**Query** // returns reported Relative Fluorescence of Transfection of HuVEC Cells for input 544 (GVKRSYGAARGDDRRRPNVVAPYKAWRRRRRRRRRRRR) [compound 544]
**Result** 28639

**Query** Requested field: Relative Fluorescence of Transfection of HuVEC Cells. Item: 109 (RRRRRRRRRRRR) [compound 109]
**Result** 25907

**Query** Form field: reported Relative Fluorescence of Transfection of HuVEC Cells of 545 (KSVPNRTRTYIKLKRLRFKGAPYKAWRRRRRRRRRRRR) [compound 545]
**Result** 27133

**Query** Please give the measured Relative Fluorescence of Transfection of HuVEC Cells for this substance: 541 (RRRRRRRRRRRRGKWERKPIRCAS) [compound 541]
**Result** 28125

**Query** Entry 540 (RRRRRRRRRRRRVDYGKWERKPIRCASMSR) [compound 540] has what Relative Fluorescence of Transfection of HuVEC Cells?
**Result** 30023

* * *

test system: HeLa Cells; assay: GFP plasmid transfection with DOTMA/DOPE plus surface ligand peptide, fluorescent plate reader (Example 1); assay type: cell-based; conditions: DOTMA/DOPE + peptide linked to R12 or K16; EF1Alpha eGFP plasmid; 42 hours
MEASURED_QUANTITY: Relative Fluorescence of Transfection of HeLa Cells (RF)
No unit in the answer, please; the number alone is enough.

218 (SPPRRARVT) [compound 218]; 11179
345 (TAGSCLRKFSTMFLF) [compound 345]; 8493
351 (LNRQELFPFG) [compound 351]; 12279

**Query** Any idea what its Relative Fluorescence of Transfection of HeLa Cells (RF) is? The substance is 234 (YEKPGSPPREVVPRPRPGV) [compound 234]
**Result** 3867

**Query** # lookup: Relative Fluorescence of Transfection of HeLa Cells (RF) of 367 (TDIPPCPHGWISLWK) [compound 367]
**Result** 39008

**Query** Would you kindly share the measured Relative Fluorescence of Transfection of HeLa Cells (RF) for 371 (GPAGKDGEAGAQG) [compound 371] ?
**Result** 5180

**Query** Record request: Relative Fluorescence of Transfection of HeLa Cells (RF) value, item 353 (KKQRFRHRNRKGYRSQ) [compound 353]
**Result** 29119

**Query** Which Relative Fluorescence of Transfection of HeLa Cells (RF) reading was recorded for the substance 328 (NWRHISYITRFG) [compound 328] ?
**Result** 32528

**Query** Item 350 (SIGFRGDGQTC) [compound 350] has what recorded Relative Fluorescence of Transfection of HeLa Cells (RF)?
**Result** 13313

**Query** Query (substance): 348 (HQQDLGTAGSCLRKFSTM) [compound 348] ; field requested: Relative Fluorescence of Transfection of HeLa Cells (RF)
**Result** 22289

**Query** For 220 (ATETTITIS) [compound 220] , what is its reported Relative Fluorescence of Transfection of HeLa Cells (RF)?
**Result** 9398

**Query** I would be grateful if you could share the reported Relative Fluorescence of Transfection of HeLa Cells (RF) for 379 (TAGSCLRKF) [compound 379] .
**Result** 27424

**Query** Which Relative Fluorescence of Transfection of HeLa Cells (RF) is listed for 357 (SETTVKYIFRLHE) [compound 357] ?
**Result** 22679

**Query** For the substance shown here, 352 (RIQNLLKITNLRIKFVK) [compound 352] , give the reported Relative Fluorescence of Transfection of HeLa Cells (RF).
**Result** 32126

**Query** Suppose we examine the substance 359 (KAFDITYVRLKF) [compound 359] ; what Relative Fluorescence of Transfection of HeLa Cells (RF) value has been reported?
**Result** 3136

**Query** Entry 365 (ISRCQVCMKKRH) [compound 365] has what Relative Fluorescence of Transfection of HeLa Cells (RF)?
**Result** 36093

**Query** What Relative Fluorescence of Transfection of HeLa Cells (RF) value was documented for this substance, 349 (RNIAEIIKDI) [compound 349] ?
**Result** 4433

**Query** Give the measured Relative Fluorescence of Transfection of HeLa Cells (RF) of 219 (RKRLQVQLSIRT) [compound 219] .
**Result** 13721

**Query** Relative Fluorescence of Transfection of HeLa Cells (RF) for 230 (WQPPRARI) [compound 230] ?
**Result** 8944

**Query** Reported Relative Fluorescence of Transfection of HeLa Cells (RF) for 377 (TAGSCLRRFSTM) [compound 377] : what is it?
**Result** 15091

**Query** Query: Relative Fluorescence of Transfection of HeLa Cells (RF); subject: 229 (PPFLMLLKGSTR) [compound 229]
**Result** 8816

**Query** // query Relative Fluorescence of Transfection of HeLa Cells (RF) value for entry 454 (TGLSCLQRFTTM) [compound 454]
**Result** 34550

**Query** # get_value(readout='Relative Fluorescence of Transfection of HeLa Cells (RF)', item= 338 (GTPGPQGIA) [compound 338] )
**Result** 6241

* * *

tested on: Human Primary Fibroblast Cells; assay: GFP plasmid transfection with DOTMA/DOPE plus plant virus movement protein derived peptides (Example 2); format: cell-based; conditions: Transfection Agent 3 μl, 42 hours
MEASURED_QUANTITY: Relative Fluorescence of Transfection of Human Primary Fibroblast Cells
Returns: string containing the numeric result and its unit.

// below: answered substances
546 (RTGVKRSYGAARGDDRRRPNVVRRRRRRRRRRRR) [compound 546]; 35020 Rf
541 (RRRRRRRRRRRRGKWERKPIRCAS) [compound 541]; 31837 Rf
543 (RRRRRRRRRRRRVDFSHVDYGKWERKPIRCASMSRLGLRG) [compound 543]; 33091 Rf
542 (KKKKKKKKKKKKKKKKGKWERKPIRCAS) [compound 542]; 36343 Rf
547 (SYVKTVPNRTRTYIKGGGGGRRRRRRRRRRRR) [compound 547]; 35563 Rf
545 (KSVPNRTRTYIKLKRLRFKGAPYKAWRRRRRRRRRRRR) [compound 545]; 29067 Rf
540 (RRRRRRRRRRRRVDYGKWERKPIRCASMSR) [compound 540]; 33853 Rf
109 (RRRRRRRRRRRR) [compound 109]; 29895 Rf

# input for lookup
**Query** Which Relative Fluorescence of Transfection of Human Primary Fibroblast Cells value belongs to 544 (GVKRSYGAARGDDRRRPNVVAPYKAWRRRRRRRRRRRR) [compound 544] ?
**Result** 32892 Rf
